Known Activity of a selection of compounds
# Tested on: Isocitrate dehydrogenase [NADP] cytoplasmic (Homo sapiens), O75874 [R132H]
# Sequence (O75874 whole entry R132H): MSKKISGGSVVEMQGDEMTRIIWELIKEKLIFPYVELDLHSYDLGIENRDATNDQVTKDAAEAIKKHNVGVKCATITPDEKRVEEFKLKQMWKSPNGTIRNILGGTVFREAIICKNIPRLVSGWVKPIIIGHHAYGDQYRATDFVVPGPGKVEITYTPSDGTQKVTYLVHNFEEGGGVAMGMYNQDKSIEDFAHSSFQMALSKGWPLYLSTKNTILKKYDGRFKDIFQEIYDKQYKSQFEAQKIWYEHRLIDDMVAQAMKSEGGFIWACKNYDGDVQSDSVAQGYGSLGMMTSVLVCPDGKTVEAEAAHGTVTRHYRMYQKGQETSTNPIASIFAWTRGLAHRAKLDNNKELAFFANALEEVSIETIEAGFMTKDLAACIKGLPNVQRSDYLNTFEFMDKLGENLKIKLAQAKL
# procedure summary: Inhibition of human IDH1 R132H mutant expressed in IPTG-induced Escherichia coli BL21 cells assessed as oxidation of NADPH to NADP+ after 5 mins by spectrophotometry
# Design: concentration or dose not given beside the values

{"columns": ["compound", "result unit", "Activity"],
 "data": [
  ["C=CCc1cc(OC)c(O)c(OC)c1", "%", 104],
  ["C=C(C)C(C)CC[C@@H](C)[C@H]1CC[C@@]2(C)[C@@H]3CC[C@H]4C(C)(C)C(=O)CC[C@]4(C)C3=CC[C@]12C (some centres not stated)", "%", 124],
  ["O=c1cc(-c2ccc(O)c(O)c2)oc2cc(O)cc(O)c12", "%", 93.6],
  ["O=C(/C=C/c1ccccc1)NCCCCNC(=O)c1ccc(O)cc1", "%", 106],
  ["O=C(/C=C/c1ccc(O)cc1)c1ccc(O)cc1O", "%", 98.1],
  ["CC(C)=CCc1c(O)c(CC=C(C)C)c2oc3c(O)ccc(O)c3c(=O)c2c1O", "%", 93.9],
  ["CC[C@H](CC[C@@H](C)[C@H]1CC[C@H]2[C@@H]3CC=C4C[C@@H](O[C@@H]5O[C@H](CO)[C@@H](O)[C@H](O)[C@H]5O)CC[C@]4(C)[C@H]3CC[C@]12C)C(C)C", "%", 103],
  ["COc1c2c(cc3oc(C)cc(=O)c13)OC(C(C)(C)O[C@H]1O[C@@H](CO)[C@H](O)[C@@H](O)[C@@H]1O)C2 (some centres not stated)", "%", 108],
  ["O=c1c(O)c(-c2ccccc2)oc2cc(O)cc(O)c12", "%", 95],
  ["CCCCCCCCCCCCC/C=C1/C(=O)O[C@H](C)[C@@H]1O", "%", 114],
  ["C=C1CC[C@@H]2[C@H]([C@H]3[C@H]1CC[C@]3(C)O)C2(C)C", "%", 107],
  ["CC[C@H](CC[C@@H](C)[C@H]1CC[C@H]2[C@@H]3CC=C4C[C@@H](O)CC[C@]4(C)[C@H]3CC[C@]12C)C(C)C", "%", 98.8],
  ["CC1(C)CC[C@]2(C)CC=C3[C@]4(C)CC[C@H]5C(C)(C)[C@@H](O)CC[C@]5(C)[C@H]4CC[C@@]3(C)[C@@H]2C1", "%", 109],
  ["O=c1c(O)c(-c2ccc(O)cc2)oc2cc(O)cc(O)c12", "%", 112],
  ["O=C1C[C@@H](c2ccc(O)cc2)Oc2cc(O)cc(O)c21", "%", 109],
  ["CC(C)=CCc1c(O)c(CC=C(C)C)c2oc3c(O)cccc3c(=O)c2c1O", "%", 109],
  ["COc1ccc(-c2oc3c(CC=C(C)C)c(O[C@@H]4O[C@H](CO)[C@@H](O)[C@H](O)[C@H]4O)cc(O)c3c(=O)c2O[C@@H]2O[C@@H](C)[C@H](O)[C@@H](O)[C@H]2O)cc1", "%", 104]
]}

----------
Ki values, listed per item
# target desc: Isocitrate dehydrogenase [NADP] cytoplasmic (Homo sapiens, UniProt O75874, R132H)
# Sequence (O75874 2-414 R132H limits assumed): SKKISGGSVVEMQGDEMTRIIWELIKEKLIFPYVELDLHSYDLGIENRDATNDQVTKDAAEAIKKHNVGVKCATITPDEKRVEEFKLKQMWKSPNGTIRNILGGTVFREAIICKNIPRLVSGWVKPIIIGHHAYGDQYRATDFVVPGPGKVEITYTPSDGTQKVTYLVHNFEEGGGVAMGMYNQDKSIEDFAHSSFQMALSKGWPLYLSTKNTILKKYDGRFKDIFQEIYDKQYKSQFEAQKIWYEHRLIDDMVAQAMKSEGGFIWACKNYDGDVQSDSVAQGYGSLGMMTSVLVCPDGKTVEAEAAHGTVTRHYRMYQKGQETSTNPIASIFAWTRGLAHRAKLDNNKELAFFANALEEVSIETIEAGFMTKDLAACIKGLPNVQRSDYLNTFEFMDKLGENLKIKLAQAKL
# procedure summary: Competitive inhibition of IDH1-R132H mutant (unknown origin) using a-ketoglutarate and NADPH as substrate by steady state kinetic analysis
# cond: read-out: Ki

{"columns": ["cpd smiles", "Ki"],
 "data": [
  ["CC(C)=CCc1c(O)cc2oc3cc(O)c(O)c(CC=C(C)C)c3c(=O)c2c1O", "3.17 µM"],
  ["COc1c(O)cc2oc3cc(O)c(CC=C(C)C)c(O)c3c(=O)c2c1CC=C(C)C", "2.85 µM"],
  ["COc1cc2oc3cc(O)c(OC)c(CC=C(C)C)c3c(=O)c2c(O)c1CC=C(C)C", "12 µM"],
  ["C=CCOc1cc2oc3cc(O)c(CC=C(C)C)c(O)c3c(=O)c2c(CC=C(C)C)c1OC", "17.4 µM"]
]}

----------
The compounds listed here are annotated with their Activity.
# System: Isocitrate dehydrogenase [NADP] cytoplasmic (Homo sapiens), O75874 [R132H]
# procedure summary: Inhibition of human IDH1 R132H mutant expressed in IPTG-induced Escherichia coli BL21 cells assessed as oxidation of NADPH to NADP+ after 5 mins by spectrophotometry
# Design: concentration or dose not given beside the values
endpoint label: Activity (%)

{"columns": ["compound", "result unit", "measured number"],
 "data": [
  ["COc1c(O)cc2oc3cc4c(c(O)c3c(=O)c2c1CC=C(C)C)C=CC(C)(C)O4", "%", 98.7],
  ["COc1c2c(cc3oc(C)cc(=O)c13)OC(C(C)(C)O)C2 (configuration not stated)", "%", 105],
  ["CC1(C)CC[C@]2(C)CC[C@]3(C)C(=CC[C@@H]4[C@@]5(C)CC[C@H](O)C(C)(C)[C@@H]5[C@H](O)C[C@]43C)[C@@H]2C1", "%", 114],
  ["C=C(C)[C@@H]1CC[C@]2(C(=O)O)CC[C@]3(C)[C@H](CC[C@@H]4[C@@]5(C)CC[C@H](O)C(C)(C)[C@@H]5CC[C@]43C)[C@@H]12", "%", 112],
  ["COc1c(O)cc2oc3cc(O)c4c(c3c(=O)c2c1CC=C(C)C)OC(C)(C)CC4", "%", 106],
  ["CC1(C)CC[C@]2(C)CC[C@]3(C)C(=CC[C@@H]4[C@@]5(C)[C@@H](O)C[C@H](O)C(C)(C)[C@@H]5CC[C@]43C)[C@@H]2C1", "%", 111],
  ["O=C(O)[C@H]1O[C@@H](Oc2cc3oc(-c4ccc(O)cc4)cc(=O)c3c(O)c2O)[C@H](O)[C@@H](O)[C@@H]1O", "%", 91.5]
]}

----------
# Tested on: Isocitrate dehydrogenase [NADP] cytoplasmic (Homo sapiens), O75874 [R132H]
# procedure summary: Inhibition of human IDH1 R132H mutant expressed in IPTG-induced Escherichia coli BL21 cells assessed as oxidation of NADPH to NADP+ after 5 mins by spectrophotometry
# Parameters: concentration or dose not given beside the values
Activity: recorded values

{"columns": ["molecule", "result unit", "Activity"],
 "data": [
  ["O=C(O[C@H]1[C@@H]2C=CO[C@@H](O[C@@H]3O[C@H](CO)[C@@H](O)[C@H](O)[C@H]3O)[C@@H]2[C@@]2(CO)O[C@@H]12)c1ccc(O)c(O)c1", "%", 107],
  ["COc1ccc(-c2cc(=O)c3c(O)cc(O[C@@H]4O[C@H](CO)[C@@H](O)[C@H](O)[C@H]4O)cc3o2)cc1O", "%", 112],
  ["C=C[C@]1(C)CC[C@@]2(C)C3=CCC[C@](C)(CO)[C@@H]3CC[C@@H]2C1", "%", 116],
  ["O=c1cc(-c2ccc(O)cc2)oc2cc(O)cc(O)c12", "%", 84],
  ["C[C@@H](C(=O)O)[C@@]1(C)CC[C@H]2[C@@](C)(CC[C@@]3(C)[C@@H]4CC(C)(C)CC[C@]4(C)CC[C@]23C)[C@@H]1CC(=O)O", "%", 90.9],
  ["C/C=C(/C)C(=O)O[C@H]1Cc2c(cc3oc(C)cc(=O)c3c2O)OC1(C)C", "%", 105],
  ["C[C@H]1[C@@H](O)CC[C@@H]2[C@]1(C)CC[C@H]1[C@@]2(C)CC[C@@]2(C)[C@@H]3CC(C)(C)CC[C@]3(C)CC[C@]12C", "%", 113],
  ["C[C@H]1C(=O)CC[C@@H]2[C@]1(C)CC[C@H]1[C@@]2(C)CC[C@@]2(C)[C@@H]3CC(C)(C)CC[C@]3(C)CC[C@]12C", "%", 108],
  ["COc1ccc(-c2cc(=O)c3c(O)cc(O[C@@H]4O[C@H](COC5OC[C@@H](O)[C@H](O)[C@H]5O)[C@@H](O)[C@H](O)[C@H]4O)cc3o2)cc1O (some centres not stated)", "%", 116],
  ["CC1(C)CC[C@]2(C)CC[C@]3(C)C(=CC[C@@H]4[C@@]5(C)[C@@H](O)C[C@H](O)C(C)(C)[C@@H]5[C@H](O)C[C@]43C)[C@@H]2C1", "%", 99],
  ["C[C@H]1[C@H](C)CC[C@]2(C)CC[C@]3(C)C(=CC[C@@H]4[C@@]5(C)CC[C@H](O)C(C)(C)[C@@H]5CC[C@]43C)[C@H]12", "%", 112],
  ["O=c1c(O)c(-c2cc(O)c(O)c(O)c2)oc2cc(O)cc(O)c12", "%", 93.2],
  ["CC(C)=CCC[C@](C)(O[C@@H]1O[C@H](CO[C@@H]2O[C@H](CO)[C@@H](O)[C@H](O)[C@H]2O)[C@@H](O)[C@H](O)[C@H]1O)[C@H]1CC[C@]2(C)[C@@H]1[C@H](O)C[C@@H]1[C@@]3(C)CC[C@H](O[C@@H]4O[C@H](CO)[C@@H](O)[C@H](O)[C@H]4O)C(C)(C)[C@@H]3CC[C@]12C", "%", 102],
  ["COc1ccc(-c2oc3c(CC=C(C)C)c(O)cc(O)c3c(=O)c2O)cc1", "%", 94.6],
  ["CC(C)=CCC[C@](C)(O[C@@H]1O[C@H](CO[C@@H]2O[C@H](CO)[C@@H](O)[C@H](O)[C@H]2O)[C@@H](O)[C@H](O)[C@H]1O)[C@H]1CC[C@]2(C)[C@@H]1[C@H](O)C[C@@H]1[C@@]3(C)CC[C@H](O[C@@H]4O[C@H](CO)[C@@H](O)[C@H](O)[C@H]4O[C@@H]4O[C@H](CO)[C@@H](O)[C@H](O)[C@H]4O)C(C)(C)[C@@H]3CC[C@]12C", "%", 105],
  ["C=C1CC[C@@H]2[C@](C)(CCC[C@]2(C)C(=O)O)[C@H]1CCc1ccoc1", "%", 92.8],
  ["CC(C)=CCOc1c2occc2cc2ccc(=O)oc12", "%", 102],
  ["COc1c2c(cc3oc(CO[C@@H]4O[C@H](CO)[C@@H](O)[C@H](O)[C@H]4O)cc(=O)c13)O[C@H](C(C)(C)O)C2", "%", 112],
  ["O=c1cc(-c2ccccc2)oc2cc(O)cc(O)c12", "%", 96.7],
  ["CC[C@H](/C=C/[C@@H](C)[C@H]1CC[C@H]2[C@@H]3CC=C4C[C@@H](O)CC[C@]4(C)[C@H]3CC[C@]12C)C(C)C", "%", 101],
  ["CC1(C)CC[C@]2(C(=O)O)CC[C@]3(C)C(=CC[C@@H]4[C@@]5(C)CC[C@H](O)C(C)(C)[C@@H]5CC[C@]43C)[C@@H]2C1", "%", 117],
  ["COc1ccc(C(=O)O[C@H]2[C@@H]3C=CO[C@@H](O[C@@H]4O[C@H](CO)[C@@H](O)[C@H](O)[C@H]4O)[C@@H]3[C@@]3(CO)O[C@@H]23)cc1OC", "%", 97.7],
  ["CC1(C)CC[C@]2(C(=O)O)CC=C3[C@]4(C)CC[C@H]5C(C)(C)[C@@H](O)CC[C@]5(C)[C@H]4CC[C@@]3(C)[C@@H]2C1", "%", 113],
  ["C[C@H]1[C@H](C)CC[C@]2(C(=O)O)CC[C@]3(C)C(=CC[C@@H]4[C@@]5(C)CC[C@H](O)C(C)(C)[C@@H]5CC[C@]43C)[C@H]12", "%", 114],
  ["O=C(O)c1cc(O)c(O)c(O)c1", "%", 103],
  ["COc1ccc(C(=O)O[C@H]2[C@@H]3C=CO[C@@H](O[C@@H]4O[C@H](CO)[C@@H](O)[C@H](O)[C@H]4O)[C@@H]3[C@@]3(CO)O[C@@H]23)cc1O", "%", 103],
  ["C/C=C(/C)C(=O)O[C@H]1Cc2c(cc3oc(CO)cc(=O)c3c2O)OC1(C)C", "%", 108]
]}
